- assayDetails: Inhibition of HCV NS3 serine protease
- Set-up: species or system Hepacivirus hominis
pKi: −log10 of the molar value.

# compound, pKi
measured = [
    ("CC(C)(C)NC(=O)N[C@H](C(=O)N1C[C@H]2[C@@H]([C@H]1C(=O)NC(CC1CC(F)(F)C1)C(=O)C(N)=O)C2(C)C)C(C)(C)C (stereo not given in full)", 7.01),
    ("CC(C)(C)NC(=O)N[C@H](C(=O)N1C[C@H]2[C@@H]([C@H]1C(=O)NC(CC1CC1(F)F)C(=O)C(N)=O)C2(C)C)C(C)(C)C (stereo not given in full)", 7.30),
    ("CC(C)(C)NC(=O)N[C@H](C(=O)N1C[C@H]2[C@@H]([C@H]1C(=O)NC(CC(F)(F)F)C(=O)C(N)=O)C2(C)C)C(C)(C)C (stereo not given in full)", 6.92),
    ("CC(C)(C)NC(=O)N[C@H](C(=O)N1C[C@H]2[C@@H]([C@H]1C(=O)NC(CCCC(F)(F)F)C(=O)C(N)=O)C2(C)C)C(C)(C)C (stereo not given in full)", 5.89),
    ("CC(C)(C)NC(=O)N[C@H](C(=O)N1C[C@H]2[C@@H]([C@H]1C(=O)NC(C[C@H]1C[C@@H](O)C1)C(=O)C(N)=O)C2(C)C)C(C)(C)C (stereo not given in full)", 6.80),
]
